Numbers sourced from patent US20240009246A1.

# test-description: in vitro cytotoxic activity of antibiotics against dog chondrocytes
# Format: cell-based
# protocol-conditions: dog chondrocytes; read-out: IC50 (cytotoxicity)
value-kind: IC50 (µg/mL)
// return numeric value only (unit: µg/mL, not printed)

Complete the entry with IC50 for CN[C@H](CC(C)C)C(=O)N[C@H]1C(=O)N[C@@H](CC(N)=O)C(=O)N[C@H]2C(=O)N[C@H]3C(=O)N[C@H](C(=O)N[C@H](C(=O)O)c4cc(O)cc(O)c4-c4cc3ccc4O)[C@H](O)c3ccc(c(Cl)c3)Oc3cc2cc(c3O[C@@H]2O[C@H](CO)[C@@H](O)[C@H](O)[C@H]2O[C@H]2C[C@](C)(N)[C@H](O)[C@H](C)O2)Oc2ccc(cc2Cl)[C@H]1O
8640
